Tested Target: Telomerase reverse transcriptase (Homo sapiens, UniProt O14746)
Sequence (O14746 whole entry): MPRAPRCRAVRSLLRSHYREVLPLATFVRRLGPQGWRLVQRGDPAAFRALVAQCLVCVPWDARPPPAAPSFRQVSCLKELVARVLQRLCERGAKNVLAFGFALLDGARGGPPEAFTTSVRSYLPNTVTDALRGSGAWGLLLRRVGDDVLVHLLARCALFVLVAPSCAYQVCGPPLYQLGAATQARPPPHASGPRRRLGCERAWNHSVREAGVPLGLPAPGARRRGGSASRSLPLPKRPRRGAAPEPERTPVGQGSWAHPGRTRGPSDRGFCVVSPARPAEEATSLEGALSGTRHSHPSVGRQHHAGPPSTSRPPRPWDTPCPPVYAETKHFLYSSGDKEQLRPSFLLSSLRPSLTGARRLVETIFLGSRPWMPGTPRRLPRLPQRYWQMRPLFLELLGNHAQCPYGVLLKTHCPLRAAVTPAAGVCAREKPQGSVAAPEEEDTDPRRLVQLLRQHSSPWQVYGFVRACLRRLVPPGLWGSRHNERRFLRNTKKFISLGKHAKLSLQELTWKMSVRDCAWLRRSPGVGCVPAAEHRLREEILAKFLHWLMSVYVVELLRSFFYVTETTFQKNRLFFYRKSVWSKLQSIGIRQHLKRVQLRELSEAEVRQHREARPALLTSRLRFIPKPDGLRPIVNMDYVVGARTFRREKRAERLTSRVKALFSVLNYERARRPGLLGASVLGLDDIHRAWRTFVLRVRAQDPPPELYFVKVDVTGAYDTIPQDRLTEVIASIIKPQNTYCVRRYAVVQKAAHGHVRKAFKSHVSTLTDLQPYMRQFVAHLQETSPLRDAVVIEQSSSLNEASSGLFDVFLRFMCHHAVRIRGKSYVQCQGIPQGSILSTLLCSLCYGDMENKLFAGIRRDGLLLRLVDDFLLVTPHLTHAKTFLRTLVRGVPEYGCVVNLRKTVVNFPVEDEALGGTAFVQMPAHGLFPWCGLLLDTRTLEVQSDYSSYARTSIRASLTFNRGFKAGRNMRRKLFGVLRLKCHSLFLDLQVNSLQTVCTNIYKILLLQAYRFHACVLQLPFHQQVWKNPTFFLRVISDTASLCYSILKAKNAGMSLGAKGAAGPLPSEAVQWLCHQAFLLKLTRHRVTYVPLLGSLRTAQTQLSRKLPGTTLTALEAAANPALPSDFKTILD
Assay Name: Inhibition of telomerase in human JR8 cells by TRAP assay
Assay type: cell-based
pEC50: −log10 of the molar value.
Listing: pEC50 of selected molecules

Example entries begin here.
1. CC[C@H](C)[C@H](N)C(=O)NCCNC(=O)c1ccc2c(c1)C(=O)c1ccc(C(=O)NCCNC(=O)[C@@H](N)[C@@H](C)CC)cc1C2=O :: < 4.40
2. NC(N)=NCCC[C@H](N)C(=O)NCCNC(=O)c1ccc2c(c1)C(=O)c1cc(C(=O)NCCNC(=O)[C@@H](N)CCCN=C(N)N)ccc1C2=O :: 5.92
3. N=C(N)NCCC[C@H](N)C(=O)NCCNC(=O)c1ccc2c(c1)C(=O)c1ccc(C(=O)NCCNC(=O)[C@@H](N)CCCNC(=N)N)cc1C2=O :: 5.82
4. NC(N)=NCCC[C@H](N)C(=O)NCCC(=O)Nc1ccc2c(c1)C(=O)c1cc(NC(=O)CCNC(=O)[C@@H](N)CCCN=C(N)N)ccc1C2=O :: 5.40
5. CC[C@H](C)[C@H](N)C(=O)NCCC(=O)Nc1ccc2c(c1)C(=O)c1ccc(NC(=O)CCNC(=O)[C@@H](N)[C@@H](C)CC)cc1C2=O :: < 4.40

Test system Telomerase reverse transcriptase (Homo sapiens, UniProt O14746); read-out pEC50; what value for N[C@@H](Cc1ccccc1)C(=O)NCCC(=O)Nc1ccc2c(c1)C(=O)c1ccc(NC(=O)CCNC(=O)[C@@H](N)Cc3ccccc3)cc1C2=O ?
< 4.40

Test system Telomerase reverse transcriptase (Homo sapiens, UniProt O14746); read-out pEC50; what value for NC(N)=NCCC[C@H](N)C(=O)NCCC(=O)Nc1ccc2c(c1)C(=O)c1ccc(NC(=O)CCNC(=O)[C@@H](N)CCCN=C(N)N)cc1C2=O ?
6.10

Test system Telomerase reverse transcriptase (Homo sapiens, UniProt O14746); read-out pEC50; what value for C[C@H](N)C(=O)NCCNC(=O)c1ccc2c(c1)C(=O)c1ccc(C(=O)NCCNC(=O)[C@H](C)N)cc1C2=O ?
< 4.40

Test system Telomerase reverse transcriptase (Homo sapiens, UniProt O14746); read-out pEC50; what value for C[C@@H](O)[C@H](N)C(=O)NCCNC(=O)c1ccc2c(c1)C(=O)c1ccc(C(=O)NCCNC(=O)[C@@H](N)[C@@H](C)O)cc1C2=O ?
< 4.40

Test system Telomerase reverse transcriptase (Homo sapiens, UniProt O14746); read-out pEC50; what value for C[C@@H](O)[C@H](N)C(=O)NCCNC(=O)c1ccc2c(c1)C(=O)c1cc(C(=O)NCCNC(=O)[C@@H](N)[C@@H](C)O)ccc1C2=O ?
< 4.40

Test system Telomerase reverse transcriptase (Homo sapiens, UniProt O14746); read-out pEC50; what value for CC(C)[C@H](N)C(=O)NCC(=O)Nc1ccc2c(c1)C(=O)c1ccc(NC(=O)CNC(=O)[C@@H](N)C(C)C)cc1C2=O ?
< 4.40

Test system Telomerase reverse transcriptase (Homo sapiens, UniProt O14746); read-out pEC50; what value for N[C@@H](Cc1ccccc1)C(=O)NCCNC(=O)c1ccc2c(c1)C(=O)c1ccc(C(=O)NCCNC(=O)[C@@H](N)Cc3ccccc3)cc1C2=O ?
< 4.40
